TARGET OF ASSAY: T1, human IL-6 (human, UniProt P05231 30-212)
T1 construct: IL-6 flowed over captured antibodies
T1 sequence (P05231 30-212 limits assumed): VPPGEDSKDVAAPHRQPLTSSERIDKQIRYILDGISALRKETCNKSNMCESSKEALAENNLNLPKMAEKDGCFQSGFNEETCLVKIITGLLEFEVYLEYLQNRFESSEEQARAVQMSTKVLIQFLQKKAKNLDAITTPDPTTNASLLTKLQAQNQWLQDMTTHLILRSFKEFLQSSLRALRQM
ASSAY COMMENT: SPR Biacore, supernatant Ab on Protein A chip, 37 C
# cutoff 0.0006 s⁻¹ applies to koff; >= gives true (1), < gives false (0)

Worked cases, answers included:
anti-IL-6 antibody, heavy chain T63P, G66D / light chain M32L, M50D, N52S, M88Q (antibody, IgG1, V domains shown, Full IgG1 (Expi293); VL = variant III) VH: EVQLVESGGGLVQPGGSLRLSCAASGFTFSPFAMSWVRQAPGKGLEWVAKISPGGSWTYYSDPVTDRFTFSLDTSKSTAYLQMNSLRAEDTAVYYCARQLWGYYALDIWGQGTLVTVSS VL: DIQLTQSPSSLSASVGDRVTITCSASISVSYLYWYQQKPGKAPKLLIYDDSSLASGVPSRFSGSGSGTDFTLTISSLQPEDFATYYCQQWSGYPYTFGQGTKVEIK	false (0)
anti-IL-6 antibody, heavy chain S35Q, G66D / light chain M32L, M50D, N52S, M88Q (antibody, IgG1, V domains shown, Full IgG1 (Expi293); VL = variant III) VH: EVQLVESGGGLVQPGGSLRLSCAASGFTFSPFAMQWVRQAPGKGLEWVAKISPGGSWTYYSDTVTDRFTFSLDTSKSTAYLQMNSLRAEDTAVYYCARQLWGYYALDIWGQGTLVTVSS VL: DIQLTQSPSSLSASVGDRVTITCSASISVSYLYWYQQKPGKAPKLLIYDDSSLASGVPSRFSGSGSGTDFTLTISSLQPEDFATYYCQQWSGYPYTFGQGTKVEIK	true (1)
anti-IL-6 antibody, heavy chain S35K, G66D / light chain M32L, M50D, N52S, M88Q (antibody, IgG1, V domains shown, Full IgG1 (Expi293); VL = variant III) VH: EVQLVESGGGLVQPGGSLRLSCAASGFTFSPFAMKWVRQAPGKGLEWVAKISPGGSWTYYSDTVTDRFTFSLDTSKSTAYLQMNSLRAEDTAVYYCARQLWGYYALDIWGQGTLVTVSS VL: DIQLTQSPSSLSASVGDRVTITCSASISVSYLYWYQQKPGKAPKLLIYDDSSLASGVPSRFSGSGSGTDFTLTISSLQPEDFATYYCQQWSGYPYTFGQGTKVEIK	true (1)
anti-IL-6 antibody, heavy chain I51V, G66D / light chain M32L, M50D, N52S, M88Q (antibody, IgG1, V domains shown, Full IgG1 (Expi293); VL = variant III) VH: EVQLVESGGGLVQPGGSLRLSCAASGFTFSPFAMSWVRQAPGKGLEWVAKVSPGGSWTYYSDTVTDRFTFSLDTSKSTAYLQMNSLRAEDTAVYYCARQLWGYYALDIWGQGTLVTVSS VL: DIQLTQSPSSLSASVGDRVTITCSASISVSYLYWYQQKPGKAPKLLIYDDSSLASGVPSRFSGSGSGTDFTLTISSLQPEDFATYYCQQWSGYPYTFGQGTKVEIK	true (1)

Next item in the queue.
Q) Record anti-IL-6 antibody, heavy chain T63H, G66D / light chain M32L, M50D, N52S, M88Q (antibody, IgG1, V domains shown, Full IgG1 (Expi293); VL = variant III) VH: EVQLVESGGGLVQPGGSLRLSCAASGFTFSPFAMSWVRQAPGKGLEWVAKISPGGSWTYYSDHVTDRFTFSLDTSKSTAYLQMNSLRAEDTAVYYCARQLWGYYALDIWGQGTLVTVSS VL: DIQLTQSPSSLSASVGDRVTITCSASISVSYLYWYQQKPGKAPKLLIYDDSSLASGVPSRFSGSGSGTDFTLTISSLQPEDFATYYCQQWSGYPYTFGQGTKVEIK ; criterion: koff no lower than 0.0006 s⁻¹. Met?
A) false (0)

Measured values drawn from patent US20240209076A1 for this set.
